The values you see were collected from patent EP2829880A1.

- Target: BCRP (ABCG2) (Homo sapiens, UniProt Q9UNQ0)
- Sequence (Q9UNQ0 whole entry): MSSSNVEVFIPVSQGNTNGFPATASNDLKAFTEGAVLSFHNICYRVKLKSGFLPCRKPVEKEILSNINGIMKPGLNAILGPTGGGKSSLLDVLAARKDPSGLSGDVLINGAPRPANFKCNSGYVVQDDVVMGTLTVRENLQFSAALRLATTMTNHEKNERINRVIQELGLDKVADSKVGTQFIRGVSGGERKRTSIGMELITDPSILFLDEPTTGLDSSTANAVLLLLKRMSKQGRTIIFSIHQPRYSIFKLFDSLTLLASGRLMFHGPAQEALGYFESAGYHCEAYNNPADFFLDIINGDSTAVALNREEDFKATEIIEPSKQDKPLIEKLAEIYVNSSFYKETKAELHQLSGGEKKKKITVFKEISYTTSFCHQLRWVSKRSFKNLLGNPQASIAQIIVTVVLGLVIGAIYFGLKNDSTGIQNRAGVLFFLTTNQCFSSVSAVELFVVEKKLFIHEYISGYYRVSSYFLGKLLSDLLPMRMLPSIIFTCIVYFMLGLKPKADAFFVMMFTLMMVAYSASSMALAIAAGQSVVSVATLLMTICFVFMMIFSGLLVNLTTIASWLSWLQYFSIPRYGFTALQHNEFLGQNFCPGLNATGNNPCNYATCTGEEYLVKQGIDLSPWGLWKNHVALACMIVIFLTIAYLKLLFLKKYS
- Assay name: in vitro
- Condition description: pH 6
Reported endpoint: inhibition at 100 µM

IN: Which inhibition at 100 µM is listed for CN(Cc1cnc2nc(N)nc(N)c2n1)c1ccc(C(=O)N[C@@H](CCC(=O)O)C(=O)O)cc1 [MTX, methotrexate] ?
OUT: ~46%
